# system.under.test: PSMA (Homo sapiens)
# Construct: host or cells: LNCaP cells
# assay.text: competitive cell binding assay vs 68Ga-labeled PSMA-10 on LNCaP cells
# experimental.parameters: LNCaP cells, 0.8 nM 68Ga-PSMA-10 radioligand; read-out: Specific Binding Affinity IC50
# Method: PSMA^+ LNCaP cells (ATCC CRL-1740) were cultured in RPMI medium. Cells were grown at 37° C. in humidified air with 5% C02 and were harvested using trypsin-ethylenediaminetetraacetic acid. The competitive cell binding assay and internalization experiments were performed according to Eder M et al. (2012), Bioconjug Chem 23(4):688. […]
Where a SMILES comes first, the peptide text is derived from it. [ ]: non-standard residue; d: D form. The star is where a group is joined. DOTA = O=C(O)CN1CCN(CC(=O)O)CCN(CC(=O)*)CCN(CC(=O)O)CC1; EuK = O=C(O)CC[C@H](NC(=O)N[C@@H](CCCCN*)C(=O)O)C(=O)O; 2Nal = N[C@@H](Cc1ccc2ccccc2c1)C(=O)O; Trx = NC[C@H]1CC[C@H](C(=O)O)CC1
measurement.label: pIC50
pIC50 field: float, defined as -log10 of concentration (mol/L).

Consider the worked cases shown below.
O=C(O)CCC(NC(=O)NC(CCCCNC(=O)C(Cc1ccc2ccccc2c1)NC(=O)C1CCC(CNC(=O)CN2CCN(CC(=O)O)CCN(CC(=O)O)CCN(CC(=O)O)CC2)CC1)C(=O)O)C(=O)O (stereo not drawn) [PSMA-617, reference compound] ... 7.66
O=C(O)CC[C@H](NC(=O)N[C@@H](CCCCNC(=O)[C@H](Cc1ccc2ccccc2c1)NC(=O)[C@H](Cc1c[nH]cn1)NC(=O)[C@H](CCC(=O)O)NC(=O)[C@H](Cc1c[nH]cn1)NC(=O)[C@H](CCC(=O)O)NC(=O)[C@H](Cc1c[nH]cn1)NC(=O)[C@H](CCC(=O)O)NC(=O)[C@H]1CC[C@H](CNC(=O)CN2CCN(CC(=O)O)CCN(CC(=O)O)CCN(CC(=O)O)CC2)CC1)C(=O)O)C(=O)O [PS-3, DOTA-Chx-(EH)3-2NaI-PSMA] ({DOTA-Trx}-EHEHEH[2Nal]-EuK) ... 7.37

Note: attention shifts to another entry.
get_value(item= O=C(O)CC[C@H](NC(=O)N[C@@H](CCCCNC(=O)[C@H](Cc1ccc2ccccc2c1)NC(=O)[C@H]1CC[C@H](CNC(=O)[C@H](Cc2c[nH]cn2)NC(=O)[C@H](CCC(=O)O)NC(=O)[C@H](Cc2c[nH]cn2)NC(=O)[C@H](CCC(=O)O)NC(=O)[C@H](Cc2c[nH]cn2)NC(=O)[C@H](CCC(=O)O)NC(=O)CN2CCN(CC(=O)O)CCN(CC(=O)O)CCN(CC(=O)O)CC2)CC1)C(=O)O)C(=O)O [PS-2, DOTA-(EH)3-CHx-2NaI-PSMA] ({DOTA}-EHEHEH[Trx][2Nal]-EuK) , readout=pIC50) returns 7.43

###

# Tested on: PSMA+ LNCaP cells
# assay.text: cell surface binding and internalization of radiolabeled compounds
# Assay type: cell-based
# experimental.parameters: 68Ga-labeled, blocked
Where a SMILES comes first, the peptide text is derived from it. [ ]: non-standard residue; d: D form. The star is where a group is joined. DOTA = O=C(O)CN1CCN(CC(=O)O)CCN(CC(=O)*)CCN(CC(=O)O)CC1; EuK = O=C(O)CC[C@H](NC(=O)N[C@@H](CCCCN*)C(=O)O)C(=O)O; 2Nal = N[C@@H](Cc1ccc2ccccc2c1)C(=O)O; Trx = NC[C@H]1CC[C@H](C(=O)O)CC1
measurement.label: Cell Surface binding (% ID/10^5 cells)
Only the number, expressed in % ID/10^5 cells, is required.

O=C(O)CC[C@H](NC(=O)N[C@@H](CCCCNC(=O)[C@H](Cc1ccc2ccccc2c1)NC(=O)[C@H]1CC[C@H](CNC(=O)[C@H](CCC(=O)O)NC(=O)[C@H](CCC(=O)O)NC(=O)[C@H](CCC(=O)O)NC(=O)CN2CCN(CC(=O)O)CCN(CC(=O)O)CCN(CC(=O)O)CC2)CC1)C(=O)O)C(=O)O [PS-5, DOTA-(E)3-CHx-2NaI-PSMA] ({DOTA}-EEE[Trx][2Nal]-EuK) ... 0.055

get_value(item= O=C(O)CC[C@H](NC(=O)N[C@@H](CCCCNC(=O)[C@H](Cc1ccc2ccccc2c1)NC(=O)[C@H]1CC[C@H](CNC(=O)[C@H](Cc2c[nH]cn2)NC(=O)[C@H](CCC(=O)O)NC(=O)[C@H](Cc2c[nH]cn2)NC(=O)[C@H](CCC(=O)O)NC(=O)[C@H](Cc2c[nH]cn2)NC(=O)[C@H](CCC(=O)O)NC(=O)CN2CCN(CC(=O)O)CCN(CC(=O)O)CCN(CC(=O)O)CC2)CC1)C(=O)O)C(=O)O [PS-2, DOTA-(EH)3-CHx-2NaI-PSMA] ({DOTA}-EHEHEH[Trx][2Nal]-EuK) , readout=Cell Surface binding) returns 0.060

get_value(item= O=C(O)CC[C@H](NC(=O)N[C@@H](CCCCNC(=O)[C@H](Cc1ccc2ccccc2c1)NC(=O)[C@H]1CC[C@H](CNC(=O)[C@H](CCC(=O)O)NC(=O)[C@H](Cc2c[nH]cn2)NC(=O)[C@H](CCC(=O)O)NC(=O)[C@H](Cc2c[nH]cn2)NC(=O)[C@H](CCC(=O)O)NC(=O)[C@H](Cc2c[nH]cn2)NC(=O)CN2CCN(CC(=O)O)CCN(CC(=O)O)CCN(CC(=O)O)CC2)CC1)C(=O)O)C(=O)O [PS-4.2, DOTA-(HE)3-CHx-2NaI-PSMA] ({DOTA}-HEHEHE[Trx][2Nal]-EuK) , readout=Cell Surface binding) returns 0.080

###

# system.under.test: PSMA (Homo sapiens, UniProt Q04609)
# Construct: host or cells: LNCaP cells
# Sequence (Q04609 whole entry): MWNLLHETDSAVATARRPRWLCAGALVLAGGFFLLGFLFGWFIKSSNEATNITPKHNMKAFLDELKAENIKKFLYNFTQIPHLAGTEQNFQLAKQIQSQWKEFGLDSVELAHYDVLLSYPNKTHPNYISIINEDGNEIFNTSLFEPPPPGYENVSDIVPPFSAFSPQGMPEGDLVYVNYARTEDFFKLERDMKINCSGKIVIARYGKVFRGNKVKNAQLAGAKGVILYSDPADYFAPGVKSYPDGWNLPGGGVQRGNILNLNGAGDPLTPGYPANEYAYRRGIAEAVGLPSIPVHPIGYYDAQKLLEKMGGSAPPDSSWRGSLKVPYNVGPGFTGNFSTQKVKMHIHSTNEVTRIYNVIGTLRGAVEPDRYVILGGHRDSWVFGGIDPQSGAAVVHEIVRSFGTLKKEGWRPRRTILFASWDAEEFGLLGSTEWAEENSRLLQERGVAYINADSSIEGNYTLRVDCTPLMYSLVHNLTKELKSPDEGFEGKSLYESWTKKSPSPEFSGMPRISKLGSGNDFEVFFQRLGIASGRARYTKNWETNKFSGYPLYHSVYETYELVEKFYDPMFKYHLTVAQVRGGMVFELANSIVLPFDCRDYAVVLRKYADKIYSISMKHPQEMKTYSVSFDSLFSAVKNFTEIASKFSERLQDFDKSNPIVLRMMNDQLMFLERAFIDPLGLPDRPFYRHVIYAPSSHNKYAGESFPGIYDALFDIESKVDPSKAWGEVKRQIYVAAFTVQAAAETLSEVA
# assay.text: competitive cell binding assay vs 68Ga-labeled PSMA-10 on LNCaP cells
# experimental.parameters: LNCaP cells, 0.8 nM 68Ga-PSMA-10 radioligand; read-out: Specific Binding Affinity IC50
Where a SMILES comes first, the peptide text is derived from it. [ ]: non-standard residue; d: D form. The star is where a group is joined. DOTA = O=C(O)CN1CCN(CC(=O)O)CCN(CC(=O)*)CCN(CC(=O)O)CC1; EuK = O=C(O)CC[C@H](NC(=O)N[C@@H](CCCCN*)C(=O)O)C(=O)O; 2Nal = N[C@@H](Cc1ccc2ccccc2c1)C(=O)O; Trx = NC[C@H]1CC[C@H](C(=O)O)CC1
measurement.label: pIC50
pIC50 field: float, defined as -log10 of concentration (mol/L).

get_value(item= O=C(O)CC[C@H](NC(=O)N[C@@H](CCCCNC(=O)[C@H](Cc1ccc2ccccc2c1)NC(=O)[C@H](CCC(=O)O)NC(=O)[C@H](CCC(=O)O)NC(=O)[C@H](CCC(=O)O)NC(=O)[C@H]1CC[C@H](CNC(=O)CN2CCN(CC(=O)O)CCN(CC(=O)O)CCN(CC(=O)O)CC2)CC1)C(=O)O)C(=O)O [PS-9, DOTA-CHx-(E)3-2NaI-PSMA] ({DOTA-Trx}-EEE[2Nal]-EuK) , readout=pIC50) returns 7.63

get_value(item= O=C(O)CC[C@H](NC(=O)N[C@@H](CCCCNC(=O)[C@H](CCC(=O)O)NC(=O)[C@H](CCC(=O)O)NC(=O)[C@H](CCC(=O)O)NC(=O)[C@H](Cc1ccc2ccccc2c1)NC(=O)[C@H]1CC[C@H](CNC(=O)CN2CCN(CC(=O)O)CCN(CC(=O)O)CCN(CC(=O)O)CC2)CC1)C(=O)O)C(=O)O [PS-6, DOTA-CHx-2NaI-(E)3-PSMA] ({DOTA-Trx}-[2Nal]EEE-EuK) , readout=pIC50) returns 7.54

###

# system.under.test: PSMA (Homo sapiens, UniProt Q04609)
# Construct: host or cells: LNCaP cells
# assay.text: competitive cell binding assay vs 68Ga-labeled PSMA-10 on LNCaP cells
# experimental.parameters: LNCaP cells, 0.8 nM 68Ga-PSMA-10 radioligand; read-out: Specific Binding Affinity IC50
Where a SMILES comes first, the peptide text is derived from it. [ ]: non-standard residue; d: D form. The star is where a group is joined. DOTA = O=C(O)CN1CCN(CC(=O)O)CCN(CC(=O)*)CCN(CC(=O)O)CC1; EuK = O=C(O)CC[C@H](NC(=O)N[C@@H](CCCCN*)C(=O)O)C(=O)O; 2Nal = N[C@@H](Cc1ccc2ccccc2c1)C(=O)O; Trx = NC[C@H]1CC[C@H](C(=O)O)CC1
// pIC50 lookup, one value per entry
pIC50 field: float, defined as -log10 of concentration (mol/L).

O=C(O)CC[C@H](NC(=O)N[C@@H](CCCCNC(=O)[C@H](Cc1ccc2ccccc2c1)NC(=O)[C@H]1CC[C@H](CNC(=O)[C@H](Cc2c[nH]cn2)NC(=O)[C@H](CCC(=O)O)NC(=O)[C@H](Cc2c[nH]cn2)NC(=O)[C@H](CCC(=O)O)NC(=O)[C@H](Cc2c[nH]cn2)NC(=O)[C@H](CCC(=O)O)NC(=O)[C@H](Cc2c[nH]cn2)NC(=O)[C@H](CCC(=O)O)NC(=O)CN2CCN(CC(=O)O)CCN(CC(=O)O)CCN(CC(=O)O)CC2)CC1)C(=O)O)C(=O)O [PS-4, DOTA-(EH)4-CHx-2NaI-PSMA] ({DOTA}-EHEHEHEH[Trx][2Nal]-EuK) ... 7.33

get_value(item= O=C(O)CC[C@H](NC(=O)N[C@@H](CCCCNC(=O)[C@H](Cc1ccc2ccccc2c1)NC(=O)[C@H]1CC[C@H](CNC(=O)[C@H](Cc2c[nH]cn2)NC(=O)[C@H](Cc2c[nH]cn2)NC(=O)[C@H](Cc2c[nH]cn2)NC(=O)CN2CCN(CC(=O)O)CCN(CC(=O)O)CCN(CC(=O)O)CC2)CC1)C(=O)O)C(=O)O [PS-7, DOTA-(H)3-CHx-2NaI-PSMA] ({DOTA}-HHH[Trx][2Nal]-EuK) , readout=pIC50) returns 7.64

get_value(item= O=C(O)CC[C@H](NC(=O)N[C@@H](CCCCNC(=O)[C@H](Cc1ccc2ccccc2c1)NC(=O)[C@H](Cc1c[nH]cn1)NC(=O)[C@H](Cc1c[nH]cn1)NC(=O)[C@H](Cc1c[nH]cn1)NC(=O)[C@H]1CC[C@H](CNC(=O)CN2CCN(CC(=O)O)CCN(CC(=O)O)CCN(CC(=O)O)CC2)CC1)C(=O)O)C(=O)O [PS10, DOTA-CHx-(H)3-2NaI-PSMA] ({DOTA-Trx}-HHH[2Nal]-EuK) , readout=pIC50) returns 7.27
